Cited source: patent US20250325468A1

experiment: Skin irritation test on artificial skin (MTT); format: cell-based; settings: human, artificial skin (Neoderm-ED, Tegoscience); FIG. 4; 20 μl of 100 μg/ml peptide; 50% or greater = no irritation; read-out: cell viability
Where no end group is shown, it is not given here.
MEASURED_PROPERTY: viability at 0.5 h, 100 µg/mL

For reference, reported viability at 0.5 h, 100 µg/mL for RRWRRWNRFNRRRCRRRLQQTQAQVDEVVDIM [C2-P4] stands at ~85%
